Measured growth inhibition accompanies every entry in the list below.
measurement-description: NCI Yeast Anticancer Drug Screen. Data for the rad50 strain (AID 155);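 further: 0% = growth of vehicle-only cultures of the same strain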
condition-parameters: S. cerevisiae rad50 strain growth inhibition; at 5.0 µM (retest, dose inferred, filed as 0.5); hits give high values
This is part of a sample that, as a whole, favours compounds with a hit. Of some 79,000 tested, about 15% had one in any assay.
I only need the number, in %, no unit after it.

Q. Quick one: growth inhibition of CN(C)C(=O)OC1C(=O)N(C)c2ccc(Cl)cc2C2(c3ccccc3)N1C2(Cl)Cl (stereo unspecified) ?
A. -18

Q. And what about the compound CC(C)CCC(=O)OC1CCC2(C)C(=CCC3C2CCC2(C)C(O)CCC32)C1 (stereo unspecified) ?
A. 16

Q. And what about the compound "OC(c1ccccc1)(c1ccccc1)c1ccccn1" ?
A. -6

Q. And what about the compound "c1ccc2c(c1)[O][Sn][O]2" ?
A. 0

Q. And what about the compound "NC(=O)Nc1ccc([As](Sc2ccccc2C(=O)O)Sc2ccccc2C(=O)O)cc1" ?
A. -1

###

measurement-description: NCI Yeast Anticancer Drug Screen. Data for the mec2-1 strain (AID 157)
condition-parameters: S. cerevisiae mec2-1 strain, at 50.0 µM (retest, dose inferred, filed as 5.0)
This is part of a sample that, as a whole, favours compounds with a hit. Of some 79,000 tested, about 15% had one in any assay. Activity calls are given as the source filed them. Cut-off read from the data, not from the text of the source: active = growth inhibition above about 70%; inactive = the rest.
Select the correct class. Options are active, inactive and nothing else.

# compound, answer-label
records = [
    ("COc1ccc(O)c(/C=C/[N+](=O)[O-])c1", "active"),
]

Q. Status in this test for CC12OOC(c3ccccc31)c1c2ccc2ccccc12 (stereo unspecified) ?
A. active

Q. And what about the compound CC(CCc1ccccc1)NC(C)C(O)c1ccc(O)cc1 (stereo unspecified) ?
A. inactive

Q. And what about the compound CC(=O)OC1CCC2C3CCC4C(F)C(=O)C(F)(F)CC4(C)C3CCC12C (stereo unspecified) ?
A. active

Q. And what about the compound OC1CCCC2CCCNC12 (stereo unspecified) ?
A. active

Q. And what about the compound "O=[N+]([O-])c1cc(Cl)c(Cl)cc1[N+](=O)[O-]" ?
A. active

###

Measured growth inhibition accompanies every entry in the list below.
measurement-description: NCI Yeast Anticancer Drug Screen. Data for the bub3 strain (AID 167)
condition-parameters: S. cerevisiae bub3 mutant strain, at 50.0 µM (retest, dose inferred, filed as 5.0), hits give high values
Experimental: Growth inhibition of yeast strains with defined genetic alterations is measured as a screen for potential anti-cancer activity. Selected strains with alterations in DNA damage repair or cell cycle control were exposed to compounds and growth inhibition was measured relative to vehicle treated controls. The strain used in this assay is bub3
Compounds without any hit were thinned out: in the full panel of roughly 79,000, 15% have a hit.
I only need the number, in %, no unit after it.

# compound, growth inhibition, %
measured = [
    ("O=C(Nc1ccccc1)c1cc([N+](=O)[O-])ccc1O.[Ni]", 99),
    ("CC1CC[N-]C(C)C1.CN(C)C=O.[Cl][Pt][Cl] (centres undefined)", 100),
    ("CC1=C(N2CC2)C(=O)c2nc3n(c2C1=O)CCC3OC(=O)CCl (centres undefined)", 19),
    ("CC(=O)[O][Hg][c]1ccc(N)[c]([Hg][O]C(C)=O)c1", 99),
    ("O=C1C=C(N2CC2)C(=O)C(N2CC2)=C1N1CC1", 97),
    ("CC(=O)c1ccc(-[n+]2c(C)cc(-c3ccccc3)cc2C)cc1", -1),
    ("S=C=[N][Sn]([N]=C=S)([c]1ccccc1)[c]1ccccc1.c1ccc2nc(-c3ccc4ccccc4n3)ccc2c1", 99),
    ("COc1cc(C2c3cc4c(cc3[C@@H](Nc3ccc([N+](=O)[O-])cc3)C3COC(=O)[C@H]23)OCO4)cc(OC)c1O (some centres undefined)", 98),
]

--- query ---
Q. Quick one: growth inhibition of "O=C([CH-]C(=O)c1ccccc1)c1ccccc1.O=C([CH-]C(=O)c1ccccc1)c1ccccc1.[La+3].[OH-].[OH3+]" ?
A. 37
